molecular target: T1, Human CD137 on Jurkat cells (human, UniProt Q07011 24-255); experiment: flow cytometry, Jurkat cells;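 also: binding of antibody-containing supernatants to NF-kB-Luc2/4-1BB Jurkat cells, detected by flow cytometry with a PE-labelled anti-human IgG-Fc secondary antibody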
T1 construct: whole, on cells; also called full-length human CD137-expressing Jurkat cell line; NF-kB-Luc2/4-1BB Jurkat
OBSERVATION TYPE: binding result

>  <BINDER>
CD137 #B13 (antibody, human IgG1, V domains shown, human IgG1 KO (L234A/L235A)/kappa chimeric IgG) VH: QVQLQQPGAELVKPGASVKLSCKASGYTFTNFWINWVKQRPGQALEWIGNIYPGNDNTNYNGNFKTKATLTVDRSSSTAYMHLSSLTSKDSAVYYCARGQLGLDYWGQGTTLTVSS VL: DILLTQSPAILSVSPGERVSFSCRASQNIGTTIHWYHQRTNGSPRLLIKFASESISGIPSRFSGSGSGTDFTLSINSVESEDFADYYCQQSNSWPFTFGSGTKLEIK

>  <OBSERVATION TYPE>
binding result

>  <OBSERVED VALUE>
binds

$$$$
>  <BINDER>
CD137 #B3 (antibody, human IgG1, V domains shown, human IgG1 KO (L234A/L235A)/kappa chimeric IgG) VH: DVQLVESGGDLVQPGGSRKLSCAASGFTFSSFGMHWVRQAPERGLEWVAYISSGSSTIYYADTVKGRFIISRDNPKNTLFLQMTSLRSEDTAMYYCARDWVDYWGQGTSVTVSS VL: QIVLTQSPAIMSASPGEKVTITCSASSSVNYIHWFQQKPGTSPKLWIYSTSNLASGVPARFSGRGSGTSYSLTISRMEAEDAATYYCLQGSSYPWTFGGGTKLEIK

>  <OBSERVATION TYPE>
binding result

>  <OBSERVED VALUE>
binds

$$$$
>  <BINDER>
CD137 #B1 (antibody, human IgG1, V domains shown, human IgG1 KO (L234A/L235A)/kappa chimeric IgG) VH: QVQLQQPGAELVKPGASVKLSCKASGYTFTNFWINWVKQRPGQALEWIGNIYPGNDNTNYNGNFKTKATLTVDRSSSTAYMHLSSLTSKDSAVYYCARGQLGLDYWGQGTTLTVSS VL: DILLTQSPAILSVSPGERVSFSCRASQNIGTTIHWYHQRTNGSPRLLIKFASESISGIPSRFSGSGSGTDFTLSINSVESEDFADYYCQQSNSWPFTFGSGTKLEIK

>  <OBSERVATION TYPE>
binding result

>  <OBSERVED VALUE>
binds

$$$$
